System: Human large cell immunoblastic lymphoma cell line SR
test.details: Inhibition of SR cell proliferation (CellTiter luminescent viability)
Assay type: cell-based
assay.context: Table IE1, CDK4/6 inhibitor-based, 96 hours, read-out: Inhibitory activity (IC50, nM) on tumor cell proliferation, SR
measurement.name: IC50

Cc1nc2c(F)cc(-c3nc(Nc4ccc(N5CCC(N6CCN(Cc7ccc8c(c7)CN(N7CCC(=O)NC7=O)C8=O)CC6)CC5)cn4)ncc3F)cc2n1C(C)C = 10 to 50 nM
CN(C)C(=O)c1cc2cnc(Nc3ccc(N4CCNCC4)cn3)nc2n1C1CCCC1 [Ribociclib, reference compound] = 5000 to 10000 nM

Problem: Please tell me: IC50 of CC(=O)c1c(C)c2cnc(Nc3ccc(N4CCNCC4)cn3)nc2n(C2CCCC2)c1=O [Palbociclib, reference compound] , system Human large cell immunoblastic lymphoma cell line SR?
Result: 1000 to 5000 nM

====

Below: a set of entries, each annotated with reported IC50.
System: Human large cell immunoblastic lymphoma cell line SR
test.details: Inhibition of SR cell proliferation (CellTiter luminescent viability)
Assay type: cell-based
assay.context: Table IE1, CDK4/6 inhibitor-based, 96 hours, read-out: Inhibitory activity (IC50, nM) on tumor cell proliferation, SR

Sample answers from the record:
Cc1nc2c(F)cc(-c3nc(Nc4ccc(CN5CCN(CC6CCN(c7cccc8c7C(=O)N(N7CCC(=O)NC7=O)C8=O)CC6)CC5)cn4)ncc3F)cc2n1C(C)C [GT-06663] = 400 to 800 nM
Cc1nc2c(F)cc(-c3nc(Nc4ccc(N5CCN(Cc6ccc7c(c6)CN(N6CCC(=O)NC6=O)C7=O)CC5)cn4)ncc3F)cc2n1C(C)C [GT-06672] = 100 to 300 nM
Cc1nc2c(F)cc(-c3nc(Nc4ccc(N5CCC(N(C)CC6CCN(c7ccc8c(c7)C(=O)N(N7CCC(=O)NC7=O)C8=O)CC6)CC5)cn4)ncc3F)cc2n1C(C)C [GT-06733] = 100 to 300 nM
Cc1nc2c(F)cc(-c3nc(Nc4ccc(N5CCC(N(C)CC6CCN(c7cccc8c7C(=O)N(N7CCC(=O)NC7=O)C8=O)CC6)CC5)cn4)ncc3F)cc2n1C(C)C [GT-06734] = 100 to 300 nM
Cc1nc2c(F)cc(-c3nc(Nc4ccc(N5CCC(N(C)Cc6ccc7c(c6)CN(N6CCC(=O)NC6=O)C7=O)CC5)cn4)ncc3F)cc2n1C(C)C [GT-06837] = 10 to 50 nM

Turning now to a further record.
Problem: Please tell me: IC50 of Cc1nc2c(F)cc(-c3nc(Nc4ccc(N5CCC(N6CCN(Cc7ccc8c(c7)C(=O)N(N7CCC(=O)NC7=O)C8=O)CC6)CC5)cn4)ncc3F)cc2n1C(C)C [GT-06737] , system Human large cell immunoblastic lymphoma cell line SR?
Result: 100 to 300 nM

====

Below: a set of entries, each annotated with reported inhibition at 0.5 µM.
Tested on: Human B-Cell Lymphoma Cells (RPMI-8226)
test.details: Inhibition of RPMI-8226 cell proliferation (CellTiter luminescent viability)
Type: cell-based
assay.context: Table IA4, IRAK4 inhibitor-based, RPMI-8226, 500 nM, 96 hours, read-out: Inhibition Rate at 500 nM (%)

Sample answers from the record:
Cc1cc(-c2nc(C(=O)Nc3cc4oc(N5CCN(CC6CCN(c7cccc8c7C(=O)N(N7CCC(=O)NC7=O)C8=O)CC6)CC5)nc4nc3N3CC[C@@H](O)C3)co2)ccn1 = 25 to 30%
O=C1CCN(N2C(=O)c3cccc(N4CCC(CN5CCC(n6cc(NC(=O)c7cnn8ccc(N9C[C@H]%10C[C@@H]9CO%10)nc78)c(C(F)F)n6)CC5)CC4)c3C2=O)C(=O)N1 = 25 to 30%
O=C1CCN(N2C(=O)c3ccc(N4CC5CCC(C4)N5C[C@H]4CC[C@H](n5cc(NC(=O)c6cnn7ccc(N8C[C@H]9C[C@@H]8CO9)nc67)c(C(F)F)n5)CC4)cc3C2=O)C(=O)N1 = 25 to 30%

Problem: Please tell me: inhibition at 0.5 µM of O=C1CCN(N2Cc3cc(CN4CCC(n5cc(NC(=O)c6cnn7ccc(N8CCOCC8)nc67)c(C(F)F)n5)CC4)ccc3C2=O)C(=O)N1 , system Human B-Cell Lymphoma Cells (RPMI-8226)?
Result: 15 to 20%

Problem: Please tell me: inhibition at 0.5 µM of COc1cc2nn([C@H]3CC[C@H](CN4C5CCC4CN(c4ccc6c(c4)C(=O)N(N4CCC(=O)NC4=O)C6=O)C5)CC3)cc2cc1NC(=O)c1cccc(C(F)(F)F)c1 , system Human B-Cell Lymphoma Cells (RPMI-8226)?
Result: 30 to 40%

====

study.system: human Cereblon WT GST-tagged protein (CRBN) (Homo sapiens, UniProt Q96SW2)
Construct: purchased CISBIO 64BDCRBNPEH
Sequence (Q96SW2 whole entry): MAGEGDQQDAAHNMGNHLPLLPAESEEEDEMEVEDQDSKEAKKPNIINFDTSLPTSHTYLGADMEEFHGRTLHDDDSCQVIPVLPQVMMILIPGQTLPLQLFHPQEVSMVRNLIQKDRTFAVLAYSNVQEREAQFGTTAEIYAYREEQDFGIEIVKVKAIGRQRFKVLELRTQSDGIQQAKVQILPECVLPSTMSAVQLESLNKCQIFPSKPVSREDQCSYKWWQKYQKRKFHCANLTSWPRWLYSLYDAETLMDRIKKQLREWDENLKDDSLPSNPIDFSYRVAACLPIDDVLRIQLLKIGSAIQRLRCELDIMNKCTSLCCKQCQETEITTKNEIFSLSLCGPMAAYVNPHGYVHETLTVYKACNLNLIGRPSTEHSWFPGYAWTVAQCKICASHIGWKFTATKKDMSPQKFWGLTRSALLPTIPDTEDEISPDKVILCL
test.details: CRBN binding by HTRF (Cereblon binding kit)
assay.context: 2 μM, read-out: Inhibition Rate at 2 μM (%)
Description: The CEREBLON BINDING kits (specification: 10,000 tests; product number: Catalog #64BDCRBNPEH; CISBIO company) was used to determine the CRBN binding ability of the compounds to be tested through a HTRF method (homogeneous time-resolved fluorescence). […] After sealing and incubating the solutions in the aforementioned wells at room temperature for 3 hours, the absorbance values at emission wavelengths of 620 nm and 665 nm were detected by the HTRF method using a Spark microplate reader (V3.1 SP1). […]
measurement.name: inhibition at 2 µM

Sample answers from the record:
O=C1CCN(N2C(=O)c3ccc(N4CC5CCC4CN5C[C@H]4CC[C@H](n5cc(NC(=O)c6cnn7ccc(N8C[C@H]9C[C@@H]8CO9)nc67)c(C(F)F)n5)CC4)cc3C2=O)C(=O)N1 [GT-05833] = 60 to 80%
O=C1CCN(N2C(=O)c3ccc(N4CC5CCC4CN5CC4CCN(c5ccn6c(n5)nc5ccccc56)CC4)cc3C2=O)C(=O)N1 (stereo not drawn) [GT-08828] = 53 to 60%

Problem: # query: inhibition at 2 µM of entry O=C1CCN(N2Cc3cc(CN4CCN(c5ccn6c(n5)nc5ccccc56)CC4)ccc3C2=O)C(=O)N1 [GT-08565]
Result: 60 to 80%

====

Tested on: Human myeloid monocytic leukemia cell line (MV-4-11)
test.details: Inhibition of MV-4-11 cell proliferation (CellTiter luminescent viability)
Format: cell-based
assay.context: Homo sapiens, MV4-11; Table IG2, FAK inhibitor-based; MV-4-11, 10 nM, 96 hours; read-out: Inhibition Rate at 10 nM (%)
measurement.name: inhibition at 0.01 µM

Sample answers from the record:
CN(c1cccc(CNc2nc(Nc3ccc(N4CCC(N5CCN(Cc6ccc7c(c6)CN(N6CCC(=O)NC6=O)C7=O)CC5)CC4)cc3)ncc2C(F)(F)F)c1)S(C)(=O)=O = 30 to 40%
CS(=O)(=O)c1cccc(CNc2nc(Nc3ccc(N4CCN(Cc5ccc6c(c5)CN(N5CCC(=O)NC5=O)C6=O)CC4)cc3)ncc2C(F)(F)F)c1 = 30 to 40%
CN(c1nccnc1CNc1nc(Nc2ccc(N3CCN(CC4CCN(c5cccc6c5C(=O)N(N5CCC(=O)NC5=O)C6=O)CC4)CC3)cc2)ncc1C(F)(F)F)S(C)(=O)=O = 0 to 5%

Turning now to a further record.
Problem: # query: inhibition at 0.01 µM of entry CN(c1nccnc1CNc1nc(Nc2ccc(N3CCN(CC4CCN(c5ccc6c(c5)C(=O)N(N5CCC(=O)NC5=O)C6=O)CC4)CC3)cc2)ncc1C(F)(F)F)S(C)(=O)=O
Result: 30 to 40%

====

Tested on: Human Acute T Lymphoblastic Leukemia Cells (Molt-4)
test.details: Inhibition of Molt-4 cell proliferation (CellTiter luminescent viability)
Type: cell-based
assay.context: Homo sapiens, MOLT-4, 96 h, Table IH3, BCL-2 inhibitor-based; Molt-4, 500 nM, 96 hours; read-out: Inhibition Rate at 500 nM (%)
measurement.name: inhibition at 0.5 µM

CC1(C)CCC(CN2CCN(c3ccc(C(=O)NS(=O)(=O)c4ccc(NCC5CCOCC5)c([N+](=O)[O-])c4)c(Oc4cnc5[nH]ccc5c4)c3)CC2)=C(c2ccc(Cl)cc2)C1 [ABT-199, Venetoclax, reference compound] = 30 to 40%
CC1(C)CCC(c2ccc(Cl)cc2)=C(CN2CCN(c3ccc(C(=O)NS(=O)(=O)c4ccc(N[C@H](CCN5CC6CCC(C5)N6Cc5ccc6c(c5)CN(N5CCC(=O)NC5=O)C6=O)CSc5ccccc5)c(S(=O)(=O)C(F)(F)F)c4)cc3)CC2)C1 = 80 to 100%

Turning now to a further record.
Problem: Please tell me: inhibition at 0.5 µM of CC1(C)CCC(c2ccc(Cl)cc2)=C(CN2CCN(c3ccc(C(=O)NS(=O)(=O)c4ccc(N[C@H](CCN5CC6CCC5CN6Cc5ccc6c(c5)CN(N5CCC(=O)NC5=O)C6=O)CSc5ccccc5)c(S(=O)(=O)C(F)(F)F)c4)cc3)CC2)C1 (stereo partly drawn) , system Human Acute T Lymphoblastic Leukemia Cells (Molt-4)?
Result: 80 to 100%
